biological target: Aurora-A kinase (Homo sapiens); construct: purchased Invitrogen (Carlsbad, CA, USA); test: FRET-based Z'-LYTE kinase enzyme inhibition assay; type: biochemical; settings: 10 µM, duplicates, Z'-LYTE
QUANTITY: % Inhibition at 10 µM (%)

Solved entries (count: 2):
COc1ccc(C(=O)C(O)c2ccc(OC)cc2)cc1 (stereo not shown) | -1
COc1cccc(CC(C)NCC(O)c2ccc(O)c(O)c2)c1 (stereo not shown) | 1

1 = O=C(CNCCCc1ccccc1)c1ccc(O)c(O)c1
2 = Cc1ccc(S(=O)(=O)Nc2ccc3cc([N+](=O)[O-])ccc3c2[N+](=O)[O-])cc1
// query Which has the higher % Inhibition at 10 µM, 1 or 2 ? Which one? Tell me its label.
// result 2
(2: 22%, 1: 14%)

---

Target: Aurora-A kinase (Homo sapiens)
Construct: purchased Invitrogen (Carlsbad, CA, USA)
Sequence (O14965 1-403): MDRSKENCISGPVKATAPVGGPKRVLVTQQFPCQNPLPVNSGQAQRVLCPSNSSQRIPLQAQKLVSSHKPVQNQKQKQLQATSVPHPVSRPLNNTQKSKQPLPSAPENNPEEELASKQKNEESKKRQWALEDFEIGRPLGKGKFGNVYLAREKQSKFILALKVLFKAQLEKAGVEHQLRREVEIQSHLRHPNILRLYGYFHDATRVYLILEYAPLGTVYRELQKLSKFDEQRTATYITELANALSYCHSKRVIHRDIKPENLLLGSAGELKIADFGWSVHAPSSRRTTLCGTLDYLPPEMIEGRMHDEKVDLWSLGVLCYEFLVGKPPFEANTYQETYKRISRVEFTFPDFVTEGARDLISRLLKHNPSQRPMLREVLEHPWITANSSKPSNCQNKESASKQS
Test: FRET-based Z'-LYTE kinase enzyme inhibition assay
Format: biochemical
Details: 10 µM, duplicates, Z'-LYTE
QUANTITY: % Inhibition at 10 µM (%)

Consider the following illustrative entries.
COc1ccc(/C=N/N=C/c2ccc(OC)cc2)cc1 | 5
CC(=NNS(=O)(=O)c1ccc([N+](=O)[O-])cc1)c1ccc(C)cc1 | 12
CC(=O)Nc1ccc(S(=O)(=O)NN=Cc2cc(Cl)ccc2O)cc1 | 12
COc1ccc(C(=O)OCc2ccc3c(c2)OCO3)cc1 [Hit 94] | -2
NOS(=O)c1ccc(N=CC=Cc2ccccc2)cc1 (stereo not shown) | 21
CCCCN[C@@H](c1ccc(OC)cc1)[C@H](O)c1ccc(OC)cc1 | 3
COc1ccc(C[N+](C)(C)Cc2ccc(OC)cc2)cc1 | -2
CC(Cc1ccccc1)NCC(=O)c1ccc(O)c(O)c1 (stereo not shown) | 25
Cc1cc[n+](CC(=O)c2ccc([N+](=O)[O-])cc2)cc1 | 4
COc1cccc(C(N)CCc2cc(OC)c(OC)c(OC)c2)c1 (stereo not shown) | -2

A = COc1ccc(CC(=O)c2ccc(OC)cc2)cc1
B = COc1ccc(C(=O)OCc2ccc3c(c2)OCO3)cc1 [Hit 99]
C = COc1ccc(C2OC(c3ccc(OC)cc3)c3ccccc32)cc1 (stereo not shown)
// query # rank_down: sort by % Inhibition at 10 µM, max first Present the labels in the sequence the task asks for.
// result B, C, A
(B: 5%, C: 3%, A: -3%)
